- System: LOC_OS01G14860-cb001;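 note: purified Escherichia coli-expressed rice kinase domain construct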
- assay overview: thermal shift delta Tm vs DMSO control; higher = stronger stabilization (binding)
- run parameters: 12.5 µM; protein concentration 2 µM
property label: thermal shift delta Tm (°C)
Give the number; °C is assumed, so skip it.

thermal shift delta Tm for Cc1ccc(F)c(NC(=O)Nc2ccc(-c3cccc4[nH]nc(N)c34)cc2)c1 [Linifanib (ABT-869)] is 2.29

# thermal shift delta Tm (molecule: Clc1ccc(C2(c3ccc(-c4cn[nH]c4)cc3)CCNCC2)cc1 ) is 0.54

Looking up Oc1ccc(-c2nc(-c3ccc(F)cc3)c(-c3ccncc3)[nH]2)cc1 , I see its thermal shift delta Tm listed as 2.36

Value of thermal shift delta Tm reported for the molecule C[C@@H](N)[C@H]1CC[C@H](C(=O)Nc2ccncc2)CC1 is 0.11

# molecule CNC(=O)CN1CCC(Oc2cc3c(Nc4cccc(Cl)c4F)ncnc3cc2OC)CC1 [Sapitinib (AZD8931)] ; its thermal shift delta Tm = 0.2

Data provenance: the supplement of paper PMC9694430
